Every entry's value here was drawn from patent US11401277B2.

method: In vivo pharmacokinetic (PK) studies in rats
Design: species or system Sprague-Dawley (SD) rats
conditionsUsed: Sprague-Dawley, rat, plasma; 30 mg/kg, IV (1 h infusion), male SD rats
measurementName: Cmax (ng/mL)
One number for each entry, in ng/mL.

Q) Endpoint output: Cmax of Cn1c(=O)ccc2ccc(F)c(OCCNC[C@H]3CN(c4cnc5c(n4)NC(=O)CO5)C(=O)O3)c21 . Value?
A) 25200

---

method: In vivo pharmacokinetic (PK) studies in rats
Design: species or system Sprague-Dawley (SD) rats
conditionsUsed: male, Sprague-Dawley, rat, plasma, po, 100 mg/kg; read-out: Bioavailability* (F, %)
measurementName: bioavailability (%)
Numbers only, in %.

Q) Recorded bioavailability of Cn1c(=O)ccc2ccc(F)c(OCCNC[C@H]3CN(c4cnc5c(n4)NC(=O)CO5)C(=O)O3)c21 , please.
A) 38.4

---

method: In vivo pharmacokinetic (PK) studies in rats
Parameters: species or system Sprague-Dawley (SD) rats
conditionsUsed: male, Sprague-Dawley, rat, plasma; 100 mg/kg, IV
measurementName: Tmax (h)
Give bare numbers, in h.

Q) For the compound Cn1c(=O)ccc2ccc(F)c(OCCNC[C@H]3CN(c4cnc5c(n4)NC(=O)CO5)C(=O)O3)c21 , what Tmax is on record?
A) 1

---

method: In vivo pharmacokinetic (PK) studies in rats
Parameters: species or system Sprague-Dawley (SD) rats
conditionsUsed: male, Sprague-Dawley, rat, plasma; 5 mg/kg, IV
measurementName: AUC(0-inf) (ng·h/mL)
Give bare numbers, in ng·h/mL.

Q) Would you mind telling me what AUC(0-inf) value was observed for Cn1c(=O)ccc2ccc(F)c(OCCNC[C@H]3CN(c4cnc5c(n4)NC(=O)CO5)C(=O)O3)c21 ?
A) 1870

---

method: In vivo pharmacokinetic (PK) studies in rats
Set-up: species or system Sprague-Dawley (SD) rats
conditionsUsed: male, Sprague-Dawley, rat, plasma, iv, 100 mg/kg, IV; read-out: Vss
measurementName: Vd (L/kg)
One number for each entry, in L/kg.

Q) Would you kindly share the measured Vd for Cn1c(=O)ccc2ccc(F)c(OCCNC[C@H]3CN(c4cnc5c(n4)NC(=O)CO5)C(=O)O3)c21 [Compound 2] ?
A) 0.69

---

method: In vivo pharmacokinetic (PK) studies in rats
Design: species or system Sprague-Dawley (SD) rats
conditionsUsed: male, Sprague-Dawley, rat, plasma; 100 mg/kg, PO
measurementName: half-life (h)
Numbers only, in h.

Q) Consider the compound shown here: Cn1c(=O)ccc2ccc(F)c(OCCNC[C@H]3CN(c4cnc5c(n4)NC(=O)CO5)C(=O)O3)c21 What is its recorded half-life?
A) 5.32

---

method: In vivo pharmacokinetic (PK) studies in rats
Parameters: species or system Sprague-Dawley (SD) rats
conditionsUsed: male, Sprague-Dawley, rat, plasma; 100 mg/kg, PO
measurementName: AUC(0-inf)
Include the unit after the number when you answer.

Q) Query (compound): Cn1c(=O)ccc2ccc(F)c(OCCNC[C@H]3CN(c4cnc5c(n4)NC(=O)CO5)C(=O)O3)c21 [Compound 2] ; field requested: AUC(0-inf)
A) 14400 ng·h/mL

---

method: In vivo pharmacokinetic (PK) studies in rats
Set-up: species or system Sprague-Dawley (SD) rats
conditionsUsed: male, Sprague-Dawley, rat, plasma, iv, 150 mg/kg, IV; read-out: Vd
measurementName: Vd (L/kg)
Answers are plain numbers, in L/kg.

Q) Form field: reported Vd of Cn1c(=O)ccc2ccc(F)c(OCCNC[C@H]3CN(c4cnc5c(n4)NC(=O)CO5)C(=O)O3)c21
A) 5.38
